assayed-system: T1, Factor VIIIa (FVIIIa), from recombinant FVIII (Kogenate FS; Bayer healthcare) activated with alpha-thrombin (UniProt P00451 20-2351)
T1 sequence (looked up): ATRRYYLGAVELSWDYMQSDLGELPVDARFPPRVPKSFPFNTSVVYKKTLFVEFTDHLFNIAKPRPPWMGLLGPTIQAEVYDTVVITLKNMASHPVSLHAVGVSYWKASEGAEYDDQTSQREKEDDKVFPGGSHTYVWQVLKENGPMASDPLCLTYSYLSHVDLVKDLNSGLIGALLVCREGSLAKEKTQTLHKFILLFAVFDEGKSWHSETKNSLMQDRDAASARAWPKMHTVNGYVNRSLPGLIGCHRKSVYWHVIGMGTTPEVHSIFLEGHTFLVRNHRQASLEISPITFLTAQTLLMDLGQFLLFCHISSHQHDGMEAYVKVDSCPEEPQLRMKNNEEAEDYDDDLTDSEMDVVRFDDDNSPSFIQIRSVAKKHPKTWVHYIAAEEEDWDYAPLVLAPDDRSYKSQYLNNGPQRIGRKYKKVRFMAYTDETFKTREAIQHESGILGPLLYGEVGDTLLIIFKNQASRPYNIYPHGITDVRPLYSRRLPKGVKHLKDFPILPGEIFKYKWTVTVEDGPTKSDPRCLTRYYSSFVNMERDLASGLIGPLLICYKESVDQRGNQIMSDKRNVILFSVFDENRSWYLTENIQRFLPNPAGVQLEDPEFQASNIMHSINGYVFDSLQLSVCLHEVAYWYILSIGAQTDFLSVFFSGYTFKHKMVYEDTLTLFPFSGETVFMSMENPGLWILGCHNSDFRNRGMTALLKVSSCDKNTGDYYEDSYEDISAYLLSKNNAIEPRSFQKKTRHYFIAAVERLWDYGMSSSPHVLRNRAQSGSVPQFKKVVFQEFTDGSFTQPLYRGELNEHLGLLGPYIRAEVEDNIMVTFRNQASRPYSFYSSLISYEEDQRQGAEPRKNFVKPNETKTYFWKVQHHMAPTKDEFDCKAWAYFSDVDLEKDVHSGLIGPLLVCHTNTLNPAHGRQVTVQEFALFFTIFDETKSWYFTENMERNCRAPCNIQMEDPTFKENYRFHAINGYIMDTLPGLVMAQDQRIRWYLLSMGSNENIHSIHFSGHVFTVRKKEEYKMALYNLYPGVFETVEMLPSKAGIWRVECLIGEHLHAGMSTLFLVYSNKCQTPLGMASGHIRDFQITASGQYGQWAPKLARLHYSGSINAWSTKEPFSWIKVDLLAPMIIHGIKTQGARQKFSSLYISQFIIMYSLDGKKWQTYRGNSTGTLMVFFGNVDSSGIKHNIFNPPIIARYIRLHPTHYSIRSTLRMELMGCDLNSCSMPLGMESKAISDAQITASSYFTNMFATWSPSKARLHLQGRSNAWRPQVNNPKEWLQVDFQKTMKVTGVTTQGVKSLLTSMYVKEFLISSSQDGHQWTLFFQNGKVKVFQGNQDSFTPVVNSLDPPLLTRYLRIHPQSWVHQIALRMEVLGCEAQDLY
experiment-summary: apparent functional KD (KD-app): FX activation rate vs FVIIIa titration, fluorogenic Xase assay with PC/PS vesicles and Ca2+
Quick reference: Kd of the listed items.

Some binders with known Kd results, for comparison:
- binder: "FIXa variant I251S/R318Y/R338E/R403E/E410N (enzyme, also called I86S/R150Y/R170E/R233E/E240N) light: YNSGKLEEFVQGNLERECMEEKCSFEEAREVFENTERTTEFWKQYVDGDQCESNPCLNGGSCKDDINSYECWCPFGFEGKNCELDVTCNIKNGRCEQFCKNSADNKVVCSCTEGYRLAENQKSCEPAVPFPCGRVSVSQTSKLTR heavy: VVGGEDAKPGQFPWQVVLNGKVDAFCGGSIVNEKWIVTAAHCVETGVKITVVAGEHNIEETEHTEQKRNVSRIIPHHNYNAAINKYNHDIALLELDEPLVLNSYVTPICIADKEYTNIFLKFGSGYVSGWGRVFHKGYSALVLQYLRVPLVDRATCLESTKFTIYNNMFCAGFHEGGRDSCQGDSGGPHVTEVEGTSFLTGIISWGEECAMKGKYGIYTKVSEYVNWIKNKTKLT"
  property-name: "Kd"
  obs-value: "62.7 nM"
- binder: "FIXa variant D104N/K106S/I251S/R318Y/R338E/E410N (enzyme) light: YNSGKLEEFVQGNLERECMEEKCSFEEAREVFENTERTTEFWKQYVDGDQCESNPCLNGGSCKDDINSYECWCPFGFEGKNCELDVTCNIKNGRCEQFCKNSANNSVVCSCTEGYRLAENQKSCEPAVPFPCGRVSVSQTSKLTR heavy: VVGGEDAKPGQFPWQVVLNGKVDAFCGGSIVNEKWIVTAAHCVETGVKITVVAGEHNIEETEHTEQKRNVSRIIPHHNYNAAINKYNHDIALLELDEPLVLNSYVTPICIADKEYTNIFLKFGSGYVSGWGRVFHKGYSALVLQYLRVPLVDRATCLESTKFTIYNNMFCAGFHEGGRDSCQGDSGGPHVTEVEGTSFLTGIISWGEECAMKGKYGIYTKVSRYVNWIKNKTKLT"
  property-name: "Kd"
  obs-value: "12.4 nM"

From here, focus on the item given below.
INPUT: Any idea what its Kd is? The binder is FIXa variant R318Y/R338E/T343R/N346Y/R403E/E410N (enzyme, also called R150Y/R170E/T175R/N178Y/R233E/E240N) light: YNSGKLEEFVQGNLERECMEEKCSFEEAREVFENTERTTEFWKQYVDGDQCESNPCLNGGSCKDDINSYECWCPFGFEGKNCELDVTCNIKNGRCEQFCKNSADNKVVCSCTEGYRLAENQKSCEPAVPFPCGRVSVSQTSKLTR heavy: VVGGEDAKPGQFPWQVVLNGKVDAFCGGSIVNEKWIVTAAHCVETGVKITVVAGEHNIEETEHTEQKRNVIRIIPHHNYNAAINKYNHDIALLELDEPLVLNSYVTPICIADKEYTNIFLKFGSGYVSGWGRVFHKGYSALVLQYLRVPLVDRATCLESTKFRIYYNMFCAGFHEGGRDSCQGDSGGPHVTEVEGTSFLTGIISWGEECAMKGKYGIYTKVSEYVNWIKNKTKLT
OUTPUT: 15.6 nM

Data provenance: patent US20210238260A1
